# procedure.text: cell viability in Huh7 cells, primary screen, cytotoxicity control for HCV replication inhibitor project, CellTiter-Glo luminescence, basal, 48 h (AID 1143);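 note: Huh7 hepatoma cells carrying a hepatitis C replication reporter with no stimulus; test concentration not given here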
# reported.conditions: Huh7 HCV replicon, higher = more signal, called active from +8 up or from −8 down
List of z-score values.
Form rule: numeric answer, no unit written next to it.

Examples with answers:
1) O=C1O[C@H](c2ccccc2)[C@H](c2ccccc2)N2[C@H]1[C@@H](C(=O)O)[C@]1(C(=O)Nc3ccc(C#CC4=CCCCC4)cc31)[C@H]2c1ccc(OCCO)cc1 :: -1.89
2) CC(C)N1C(=O)c2ccccc2[C@@H](C(=O)NCCCN(C)C)[C@@H]1c1ccc(CO)cc1 :: -0.921
3) CC(C)N1C(=O)[C@@]2(c3ccc([N+](=O)[O-])cc3)CC(=O)N(CC34CC5CC(CC(C5)C3)C4)[C@@H]2c2ccc(CO)cc21 :: -0.36
4) CCCNC(=O)[C@@]1(c2ccc([N+](=O)[O-])cc2)CC(=O)N(CC23CC4CC(CC(C4)C2)C3)[C@@H]1c1ccc(CO)cc1 :: -5.17
5) CS(=O)(=O)CCOC(=O)C1=CC(CCCO)=CC(c2cccs2)N(Cc2cc3c(cc2Br)OCO3)C=C1C(=O)OCCS(C)(=O)=O (centres undefined) :: -1.26

State the recorded z-score for this entry: N#Cc1ccc(NN2C(C(O)c3cccs3)C=CC3C(=O)N(c4ccccc4)C(=O)C32)cc1 (centres undefined) -0.0331

State the recorded z-score for this entry: `COCC(=C=CC[C@@H](O)c1ccc(CO)o1)CCO` -3.6

###

# measured.target: Luciferin 4-monooxygenase (Photinus pyralis)
# procedure.text: firefly luciferase enzyme inhibitors, primary screen, biochemical, luminescence, purified enzyme, 2006 set (AID 1141);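 note: cell-free assay with purified firefly luciferase at 100 ng per well in PBS; test concentration not given here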
# reported.conditions: SteadyGlo luminescence, 30 min, higher = more signal, called active from +8 up or from −8 down
quantity.kind: z-score
Form rule: numeric answer, no unit written next to it.

1. COCCOC(=O)N1C(=O)[C@@]2(c3cc(C#CCC(C(=O)OC)C(=O)OC)ccc31)[C@H](C(=O)N1CCN(c3ncccn3)CC1)[C@H]1C(=O)O[C@H](c3ccccc3)[C@H](c3ccccc3)N1[C@@H]2c1ccc(OCCO)cc1 :: -0.59
2. C=CCC(OC(C)=O)[C@@H]1[C@@H](N(Cc2ccc(-c3ccccc3)cc2)C(=O)Cc2ccc(OC)cc2)c2cc(OCCCO)ccc2N1C(=O)c1ccc2ccccc2n1 (some centres not stated) :: -0.592

State the recorded z-score for this entry: CC(C)N1CC=CC23O[C@@H]4C=CCOC(=O)[C@@H]4[C@H]2C(=O)N(CCO)[C@@H]3C1=O (some centres not stated) -0.0322

###

# procedure.text: RPMI8226 myeloma cell viability, profiling panel, resazurin fluorescence, basal, 24 h, PK04 Diversity Set (AID 1180);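 note: RPMI8826 multiple myeloma cell line at 5000 cells per well; test concentration not given here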
# reported.conditions: higher = more signal
List of z-score values.
Form rule: numeric answer, no unit written next to it.

Examples with answers:
1. O=C1O[C@@H](c2ccccc2)[C@@H](c2ccccc2)N2[C@@H](c3ccc(O)cc3)[C@]3(C(=O)Nc4ccc(C#CC5(O)CCCCCC5)cc43)[C@@H](C(=O)N3CCCCCCC3)[C@H]12 :: -0.884
2. C=CCC(OC(C)=O)[C@@H]1[C@@H](N(Cc2cccc3ccccc23)C(=O)c2ccc(C)cc2)c2cc(OCCCO)ccc2N1C(=O)Cc1ccc(OC)cc1 (stereo partly drawn) :: -0.203
3. CC1CC/C=C\[C@H]2OC34C=CCN(Cc5ccccc5)C(=O)[C@H]3N(CCCCCO)C(=O)[C@@H]4C2C(=O)O1 (stereo partly drawn) :: 0.461

State the recorded z-score for this entry: `COc1ccc(CCNC(=O)[C@@]2(c3ccc([N+](=O)[O-])cc3)CC(=O)N(CC34CC5CC(CC(C5)C3)C4)[C@@H]2c2ccc(CO)cc2)cc1` -2.81

State the recorded z-score for this entry: C=CCC(OC(C)=O)[C@@H]1[C@@H](N(Cc2ccc(-c3ccccc3)cc2)C(=O)Cc2ccc(OC)cc2)c2cc(OCCCO)ccc2N1C(=O)c1ccc2ccccc2n1 (stereo partly drawn) 1.07

State the recorded z-score for this entry: `CCOC(=O)C1=CC[C@@H](c2ccccc2Cl)N(S(=O)(=O)c2ccc(C)cc2)C1` -1.37

###

# System: Fibrinogen (Alexa647-labelled)
# procedure.text: fibrinogen binders on compound microarrays, profiling panel, artefact control for SMM control-protein annotation, biochemical, small-molecule microarray, 635/667 nm fluorescence (AID 1131);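 note: z-score merges 667 nm fluorescence with per-spot signal-to-noise over triplicate slides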
# reported.conditions: fibrinogen-A647 binding fluorescence, higher = more signal
quantity.kind: composite z-score
Form rule: numeric answer, no unit written next to it.

Examples with answers:
1) CC(C)OC(=O)CC(=O)CC(O)c1ccc(C#N)cc1 (stereo unspecified) :: 1.04
2) CCOC(=O)C[C@H]1[C@H](OC(=O)c2ccccc2-c2ccccc2)[C@@H](NC(=O)c2ccc3ccccc3c2)c2cc(OCCCO)ccc2N1C(=O)c1ccc2ccccc2n1 :: 0.0467
3) COCC(=C=CC[C@@H](O)c1ccc(CO)o1)CCO :: -0.23
4) CC1CC/C=C\[C@H]2OC34C=CCN(Cc5ccccc5)C(=O)[C@H]3N(CCCCCO)C(=O)[C@@H]4C2C(=O)O1 (stereo partly specified) :: -0.985
5) [N-]=[N+]=NCc1ccccc1[C@@H]1OC(c2ccc(OCCCO)cc2)=N[C@]1(Cc1ccccc1N=[N+]=[N-])C(=O)NCc1ccccc1 :: 0.198

State the recorded composite z-score for this entry: C=CCC(OC(C)=O)[C@@H]1[C@@H](N(Cc2ccc(-c3ccccc3)cc2)C(=O)Cc2ccc(OC)cc2)c2cc(OCCCO)ccc2N1C(=O)c1ccc2ccccc2n1 (stereo partly specified) 0.534

###

# procedure.text: P. aeruginosa biofilm formation inhibitors, primary screen, strain PAO1, LB-PBS medium, absorbance 600 nm (AID 1176); note: test concentration not given here
# reported.conditions: P. aeruginosa PAO1 growth/biofilm, A600, 12 h; higher = more signal
List of z-score values.
Form rule: numeric answer, no unit written next to it.

Examples with answers:
1) Cc1ccccc1C(O)C1C=CC2C(=O)N(C)C(=O)C2N1N1CCCCC1 (configuration not stated) :: 0.723
2) COCCOC(=O)N1C(=O)[C@@]2(c3ccccc31)[C@H](c1ccc(O)cc1)N1[C@H](c3ccccc3)[C@H](c3ccccc3)OC(=O)[C@H]1[C@@H]2C(=O)N1CCc2cc(OC)c(OC)cc2C1 :: 0.759
3) CC(C)OC(=O)CC(=O)CC(O)c1ccc(C#N)cc1 (configuration not stated) :: -0.088
4) COc1c(C)cc(-c2cc3c(c(-c4ccc(Oc5ccccc5)cc4)n2)[Si](C(C)C)(C(C)C)OC3)cc1C :: 1.18
5) CC(C)C(=C=CC[C@H](O)c1cccc(OCCO)c1)C[C@H](O)COCc1ccccc1 :: 0.449
6) COc1ccc(C(=O)Nc2cccc(CN3C(=O)[C@]4(O[C@H](CC(=O)N5CCC[C@H]5CO)[C@@H]([Si](C)(C)c5ccc(OC)cc5)[C@@H]4C)c4ccccc43)c2)cc1 :: 0.0943

State the recorded z-score for this entry: `O=C(O)[C@H]1C[C@H]2C(=O)NCC(=O)N2[C@H]1c1ccc(O)cc1` 0.0904

###

# procedure.text: E. coli DRC41 culture turbidity changes, primary screen, E. coli filamentation inducer project, strain DRC41, OD650, 48 h (AID 1152);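 note: E. coli MC1000 strain DRC41 lacking acrAB efflux pump and sulA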
# reported.conditions: E. coli DRC41 (acrAB sulA), higher = more signal, called active from +8 up or from −8 down
quantity.kind: z-score
Form rule: numeric answer, no unit written next to it.

Examples with answers:
1) O=C1C[C@]2(c3ccc([N+](=O)[O-])cc3)C(=O)N(CC(F)(F)F)c3cc(CO)ccc3[C@H]2N1CC12CC3CC(CC(C3)C1)C2 :: 0.458
2) O=C1O[C@H](c2ccccc2)[C@H](c2ccccc2)N2[C@H]1[C@@H](C(=O)N1CCN(c3ncccn3)CC1)[C@]1(C(=O)Nc3ccccc31)[C@H]2c1ccc(OCCO)cc1 :: 2.64
3) CCOC(=O)C[C@H]1[C@H](OC(=O)c2ccc(-c3ccccc3)cc2)[C@@H](NC(=O)Cc2ccc(OC)cc2)c2cc(OCCCO)ccc2N1C(=O)c1ccc2ccccc2n1 :: -0.667

State the recorded z-score for this entry: O=C1C2C=CC(C(O)c3ccc(B(O)O)cc3)N(Nc3ccccc3)C2C(=O)N1c1ccccc1 (centres undefined) -1.52

State the recorded z-score for this entry: `C=C(C(=O)CC[C@H](OC(C)=O)c1ccc(OCCO)cc1)C(C)C` 2.32

State the recorded z-score for this entry: `O=C(CS)NCCCCCCNC(=O)[C@H]1C[C@H]2C(=O)NCC(=O)N2[C@H]1c1ccc(O)cc1` -0.618

State the recorded z-score for this entry: `COC(=O)[C@@]1(Cc2ccccc2)[C@H]2c3cc(C(=O)N(C)C)n(Cc4c(-c5ccccc5)noc4C)c3C[C@H]2CN1C(=O)c1ccccc1` -2.11

State the recorded z-score for this entry: O=C1C2C=CC(C(O)c3ccc(F)cc3)N(Nc3ccccc3)C2C(=O)N1c1ccccc1 (centres undefined) -0.789

State the recorded z-score for this entry: `COCCCNC(=O)[C@@]1(C)c2ccccc2C(=O)N(Cc2cc(C(F)(F)F)cc(C(F)(F)F)c2)[C@H]1c1ccc(CO)cc1` 0.811
